Read-out: Monocyte Chemoattractant Protein-1 (MCP1), CCL2 (gene 6347)
Experiment: BSK_4H_MCP1: BioMAP Diversity Plus: 4H Assay for Monocyte Chemoattractant Protein-1 (MCP1) Biomarker Activity (AID 2283018)
Details: primary human endothelial cells (HUVEC); actives raise or lower the signal
Active and inactive are the calls of the source. How the source made its calls: active means hit-call score of the fitted dose curve at least 0.9, where 1 is the maximum; inactive means score below 0.9.
Reply using exactly one outcome from active, inactive

| COMPOUND | ASSIGNED LABEL |
| --- | --- |
| CCOP(=S)(NC(C)C)Oc1ccccc1C(=O)OC(C)C (centres undefined) | inactive |

Could you now look at the following compound, please?
Challenge: What is the recorded call for this compound in the test? COCCOCCO
Response given: inactive

These entries and their values trace back to PubChem BioAssay (EPA / NIEHS).
